System: Pseudomonas aeruginosa
Assay: MIC against Gram-negative bacteria: Pseudomonas aeruginosa
Assay type: cell-based
Details: P. aeruginosa; 10 h cultivation at 37° C.
measurementKind: MIC (µg/mL)
Give just the number in µg/mL; leave the unit off.

Illustrative cases are given below, each with its answer.
- substance: "PRT1008 (ELDACQSQPCHNHGTCTPKPGGFHCACPPGFVGLRCE; listed as Homo sapiens)"
  MIC, µg/mL: 12.5
- substance: "PRT932 (QVNECLSNPCIHGNCTGGLSGYKCLCDAGWVGINCE; listed as Homo sapiens)"
  MIC, µg/mL: 12.5
- substance: "PRT989 (NIDDCATAVCFHGATCHDRVASFYCACPMGKTGLLCH; listed as Homo sapiens)"
  MIC, µg/mL: 50
- substance: "PRT1024 (DVDECQPSRCHPDAFCYNTPGSFTCQCKPGYQGDGFRCV; listed as Homo sapiens)"
  MIC, µg/mL: 50
- substance: "PRT1029 (PANPCEDGSHTCAPAGQARCVHHGGSTFSCACLPGYAGDGHQCT; listed as Homo sapiens)"
  MIC, µg/mL: 50

Below: the item to evaluate.
Look up MIC: PRT1037 (DCSRPCPPGRQKSPRDPCQCVCHGSAVTTQDCC; listed as Homo sapiens)
50
